Test system: DMS273
Test Protocol: Biomarker study proliferation (CellTiter-Glo)
Format: cell-based
Measurement Conditions: Homo sapiens, DMS-273, 168 h, read-out: Anti-proliferation effect IC50
Result Type: IC50
Record the result as a number with its unit.

Param readout = IC50; param system = DMS273; param query = Cc1cc(NC2CCN(C(=O)O[C@H]3CCN(C(=O)/C=C/CN(C)C)C3)CC2)n2ncc(C(C)C)c2n1 ; response: value 19 nM

* * *

Test system: SNU16
Test Protocol: Biomarker study proliferation (CellTiter-Glo)
Assay type: cell-based
Measurement Conditions: Homo sapiens, SNU-16, 168 h, read-out: Anti-proliferation effect IC50
Result Type: pIC50
Hey, just a heads up that pIC50 is the negative log base 10 of the concentration in molar.

Data request, read-out pIC50, for Cc1cc(NC2CCN(C(=O)O[C@H]3CCN(C(=O)/C=C/CN(C)C)C3)CC2)n2ncc(C(C)C)c2n1 7.77

* * *

System: A2780
Test Protocol: Biomarker study proliferation (CellTiter-Glo)
Format: cell-based
Measurement Conditions: Homo sapiens, A2780, 168 h, read-out: Anti-proliferation effect IC50
Result Type: IC50 (nM)
Give the value, in units of nM, as a plain number.

# IC50 lookup, item Cc1cc(NC2CCN(C(=O)O[C@H]3CCN(C(=O)/C=C/CN(C)C)C3)CC2)n2ncc(C(C)C)c2n1 [Example 1] 52

* * *

Tested on: HCC4006
Test Protocol: Biomarker study proliferation (CellTiter-Glo)
Format: cell-based
Measurement Conditions: Homo sapiens, HCC4006, 168 h, read-out: Anti-proliferation effect IC50
Result Type: pIC50
In simple prose, pIC50 is minus the logarithm base ten of a concentration in moles per litre.

For the record Cc1cc(NC2CCN(C(=O)O[C@H]3CCN(C(=O)/C=C/CN(C)C)C3)CC2)n2ncc(C(C)C)c2n1 [Example 1] , what value of pIC50 is listed for HCC4006? 7.55

* * *

System: KYSE150
Test Protocol: Biomarker study proliferation (CellTiter-Glo)
Format: cell-based
Measurement Conditions: Homo sapiens, KYSE-150, 168 h, read-out: Anti-proliferation effect IC50
Result Type: IC50 (nM)
Give just the numeric value; nM need not be written.

Tell me reported IC50 for Cc1cc(NC2CCN(C(=O)O[C@H]3CCN(C(=O)/C=C/CN(C)C)C3)CC2)n2ncc(C(C)C)c2n1 , tested with KYSE150. 42

* * *

Tested on: HL60
Test Protocol: Biomarker study proliferation (CellTiter-Glo)
Assay type: cell-based
Measurement Conditions: Homo sapiens, HL-60, 168 h, read-out: Anti-proliferation effect IC50
Protocol: Cancer cell lines are profiled to evaluate the anti-proliferative activity of a test compound in-vitro. […] After 15 minutes, luminescence is read using a plate reader. Data is analyzed in Excel and graphed in GraphPad Prism. Statistical analysis and p value is calculated using Mann-Whitney nonparameteric t tests using GraphPad Prism. […]
Result Type: IC50 (µM)
Express your answer in µM, writing the number without its unit.

What does the data say about its IC50? Entry: Cc1cc(NC2CCN(C(=O)O[C@H]3CCN(C(=O)/C=C/CN(C)C)C3)CC2)n2ncc(C(C)C)c2n1 [Example 1] 0.045

* * *

Target Desc: CDK13/CycK (Homo sapiens)
Sequence (Q14004 whole entry): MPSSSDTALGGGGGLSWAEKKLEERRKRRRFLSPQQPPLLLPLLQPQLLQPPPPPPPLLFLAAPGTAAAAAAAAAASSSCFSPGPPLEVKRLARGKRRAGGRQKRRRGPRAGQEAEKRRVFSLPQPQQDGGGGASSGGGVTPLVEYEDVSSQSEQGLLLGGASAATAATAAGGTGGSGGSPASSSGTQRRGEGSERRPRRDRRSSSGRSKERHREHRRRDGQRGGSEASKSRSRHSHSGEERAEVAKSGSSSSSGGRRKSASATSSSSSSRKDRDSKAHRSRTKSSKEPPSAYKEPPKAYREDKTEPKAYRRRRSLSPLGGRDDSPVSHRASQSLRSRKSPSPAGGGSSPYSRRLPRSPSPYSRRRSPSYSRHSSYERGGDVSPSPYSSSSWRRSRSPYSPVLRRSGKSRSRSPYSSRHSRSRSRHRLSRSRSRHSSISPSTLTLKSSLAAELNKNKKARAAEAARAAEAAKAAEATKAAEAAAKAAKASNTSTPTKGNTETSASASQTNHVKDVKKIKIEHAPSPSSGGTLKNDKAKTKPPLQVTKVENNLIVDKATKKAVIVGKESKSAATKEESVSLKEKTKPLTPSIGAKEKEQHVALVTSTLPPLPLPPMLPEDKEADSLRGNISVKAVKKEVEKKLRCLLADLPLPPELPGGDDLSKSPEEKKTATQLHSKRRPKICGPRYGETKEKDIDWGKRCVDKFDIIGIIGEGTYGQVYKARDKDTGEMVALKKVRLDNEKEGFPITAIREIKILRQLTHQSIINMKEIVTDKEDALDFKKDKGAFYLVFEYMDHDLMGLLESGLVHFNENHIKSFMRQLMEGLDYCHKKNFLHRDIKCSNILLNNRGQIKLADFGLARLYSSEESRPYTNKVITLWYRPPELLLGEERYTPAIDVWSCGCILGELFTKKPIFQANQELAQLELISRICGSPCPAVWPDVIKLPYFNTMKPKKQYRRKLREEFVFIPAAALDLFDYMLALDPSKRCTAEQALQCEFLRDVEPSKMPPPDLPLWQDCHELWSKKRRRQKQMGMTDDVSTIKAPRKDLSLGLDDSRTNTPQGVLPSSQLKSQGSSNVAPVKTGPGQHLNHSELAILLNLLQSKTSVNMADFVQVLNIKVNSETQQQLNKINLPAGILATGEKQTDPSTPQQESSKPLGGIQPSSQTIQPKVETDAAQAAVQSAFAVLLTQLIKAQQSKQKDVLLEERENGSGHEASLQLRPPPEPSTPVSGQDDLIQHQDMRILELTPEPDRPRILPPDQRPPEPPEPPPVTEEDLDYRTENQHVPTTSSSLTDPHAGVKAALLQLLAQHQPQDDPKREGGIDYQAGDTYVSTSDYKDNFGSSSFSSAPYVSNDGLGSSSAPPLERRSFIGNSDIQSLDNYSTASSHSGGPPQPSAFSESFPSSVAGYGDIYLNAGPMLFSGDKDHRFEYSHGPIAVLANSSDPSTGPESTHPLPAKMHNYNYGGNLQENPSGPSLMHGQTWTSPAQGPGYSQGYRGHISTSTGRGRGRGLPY
Sequence (O75909 whole entry partner): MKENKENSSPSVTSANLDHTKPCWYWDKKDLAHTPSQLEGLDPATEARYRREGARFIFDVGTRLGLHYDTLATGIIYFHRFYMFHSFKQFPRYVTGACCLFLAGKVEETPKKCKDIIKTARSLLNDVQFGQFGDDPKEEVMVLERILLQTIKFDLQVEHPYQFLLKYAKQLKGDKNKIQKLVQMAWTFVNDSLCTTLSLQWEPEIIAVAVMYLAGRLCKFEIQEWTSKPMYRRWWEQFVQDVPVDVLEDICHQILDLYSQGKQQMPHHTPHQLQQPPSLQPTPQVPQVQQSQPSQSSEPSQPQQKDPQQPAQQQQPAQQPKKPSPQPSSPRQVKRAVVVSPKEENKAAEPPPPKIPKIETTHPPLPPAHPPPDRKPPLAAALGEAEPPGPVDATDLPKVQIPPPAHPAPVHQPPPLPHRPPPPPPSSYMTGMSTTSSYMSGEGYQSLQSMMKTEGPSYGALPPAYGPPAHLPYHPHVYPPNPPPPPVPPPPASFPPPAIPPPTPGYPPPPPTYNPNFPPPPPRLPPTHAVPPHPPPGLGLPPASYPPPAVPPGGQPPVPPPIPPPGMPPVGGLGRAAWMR
Test Protocol: ProQinase radiometric protein kinase assay, 10 concentrations
Measurement Conditions: kinase 29.2 nM, ATP 0.3 μM
Result Type: IC50

Reported IC50 for Cc1cc(NC2CCN(C(=O)O[C@H]3CCN(C(=O)/C=C/CN(C)C)C3)CC2)n2ncc(C(C)C)c2n1 : what is it? ≥ 20 µM

The values you see were collected from patent US20210032257A1.
